- target system: Mu-type opioid receptor (Homo sapiens, UniProt P35372)
- Sequence (P35372 whole entry): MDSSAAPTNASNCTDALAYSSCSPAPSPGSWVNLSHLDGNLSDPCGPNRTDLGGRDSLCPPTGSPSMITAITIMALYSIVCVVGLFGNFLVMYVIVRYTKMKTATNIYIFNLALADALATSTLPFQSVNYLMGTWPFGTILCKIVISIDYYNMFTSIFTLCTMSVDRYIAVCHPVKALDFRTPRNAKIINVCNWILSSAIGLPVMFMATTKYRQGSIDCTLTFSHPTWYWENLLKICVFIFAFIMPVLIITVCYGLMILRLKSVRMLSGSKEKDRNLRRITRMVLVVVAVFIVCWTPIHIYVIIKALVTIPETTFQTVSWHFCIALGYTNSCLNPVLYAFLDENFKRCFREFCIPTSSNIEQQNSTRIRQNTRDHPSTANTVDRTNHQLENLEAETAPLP
observable: pKi
Give bare numbers, as −log10 of the molar value.

-- ask Return pKi measured with Mu-type opioid receptor (Homo sapiens, UniProt P35372) given this molecule: O=Cc1cc2ccc(C(=O)Nc3cccc4c5c([nH]c34)[C@@H]3Oc4c(O)ccc6c4[C@@]34CCN(CC3CC3)[C@H](C6)[C@]4(O)C5)cc2cc1C=O
-- reply 6.84

###

- target system: UniProtKB P41145
- Sequence (P41145 whole entry): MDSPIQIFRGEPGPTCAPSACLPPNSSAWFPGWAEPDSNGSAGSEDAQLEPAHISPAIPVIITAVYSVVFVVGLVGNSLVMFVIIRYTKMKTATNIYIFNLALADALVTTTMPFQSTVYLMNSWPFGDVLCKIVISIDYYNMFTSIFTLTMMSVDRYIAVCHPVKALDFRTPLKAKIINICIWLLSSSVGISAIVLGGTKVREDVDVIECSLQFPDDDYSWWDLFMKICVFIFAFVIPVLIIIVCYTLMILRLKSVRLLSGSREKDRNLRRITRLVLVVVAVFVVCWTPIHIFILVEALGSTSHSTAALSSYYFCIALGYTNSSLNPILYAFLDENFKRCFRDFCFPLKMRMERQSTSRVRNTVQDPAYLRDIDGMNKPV
observable: Ki (µM)
Answers are plain numbers, in µM.

-- ask Give its Ki value. Item: O=Cc1cc2ccc(C(=O)Nc3cccc4c5c([nH]c34)[C@@H]3Oc4c(O)ccc6c4[C@@]34CCN(CC3CC3)[C@H](C6)[C@]4(O)C5)cc2cc1C=O
-- reply 0.153

###

- target system: Delta-type opioid receptor (Homo sapiens, UniProt P41143)
- Sequence (P41143 whole entry): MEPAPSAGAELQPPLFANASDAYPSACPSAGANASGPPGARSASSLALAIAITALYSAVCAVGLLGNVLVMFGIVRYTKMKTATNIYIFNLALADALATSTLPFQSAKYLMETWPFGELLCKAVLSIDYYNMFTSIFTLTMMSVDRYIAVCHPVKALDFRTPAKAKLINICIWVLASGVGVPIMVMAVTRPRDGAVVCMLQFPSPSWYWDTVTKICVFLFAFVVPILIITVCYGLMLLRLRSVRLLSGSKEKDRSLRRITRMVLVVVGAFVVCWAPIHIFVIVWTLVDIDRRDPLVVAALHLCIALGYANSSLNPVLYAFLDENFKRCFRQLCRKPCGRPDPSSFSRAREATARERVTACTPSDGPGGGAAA
- protocol notes: Displacement of [3H]diprenorphine from delta opioid receptor expressed in human HEK293 cells
observable: pKi
Answers are plain numbers, as −log10 of the molar value.

-- ask Give its pKi value. Item: O=Cc1cc2ccc(C(=O)Nc3cccc4c5c([nH]c34)[C@@H]3Oc4c(O)ccc6c4[C@@]34CCN(CC3CC3)[C@H](C6)[C@]4(O)C5)cc2cc1C=O
-- reply 8.65
